Target: T1, human GIP receptor (human) (UniProt P48546)
T1 sequence (looked up): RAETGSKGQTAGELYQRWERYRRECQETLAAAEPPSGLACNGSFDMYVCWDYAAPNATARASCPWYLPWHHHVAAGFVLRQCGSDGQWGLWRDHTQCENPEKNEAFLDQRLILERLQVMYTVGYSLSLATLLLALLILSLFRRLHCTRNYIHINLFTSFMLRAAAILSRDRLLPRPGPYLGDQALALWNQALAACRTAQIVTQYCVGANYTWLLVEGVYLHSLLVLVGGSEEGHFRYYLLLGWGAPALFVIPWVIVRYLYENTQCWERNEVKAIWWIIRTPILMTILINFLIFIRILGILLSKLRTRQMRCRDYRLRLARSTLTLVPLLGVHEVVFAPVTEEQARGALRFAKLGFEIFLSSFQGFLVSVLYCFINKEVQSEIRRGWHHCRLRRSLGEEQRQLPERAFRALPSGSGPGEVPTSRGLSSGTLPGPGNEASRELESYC
Assay: cell-based or functional assay
READOUT LABEL: Relative cAMP EC50 (nM)
// return numeric value only (unit: nM, not printed)

**Q:** Consider the binder shown here: YXQGTFTSDXSQXLDXKAQXAFIEXLIAXGPSSGAPPPSGSEE (not fully specified; Aib, 4Pal, αMeL, Orn, Me4Pal, αMeY; γGlu-C18 diacid Lys; C-term amide; synthetic construct; SITE 2: note = 2-Aminoisobutyric Acid; SITE 10: note = 3-(4-Pyridyl)-L-alanine; SITE 13: note = alpha-methyl-leucine; SITE 16: note = L-ornithine; SITE 17: note = Lysine is chemically modified through conjugation of the epsilon-amino group of the Lysine side chain with D-Glutami) [Example 1114] What is its recorded Relative cAMP EC50?
**A:** 0.0478

**Q:** So what does the record say about Relative cAMP EC50 for YXQGTFTSDFSXXLDKKAQXAFIEYLLAGGPSSGAPPPEGE (synthetic construct; SITE 2: note = 2-Aminoisobutyric Acid; SITE 12: note = L-ornithine; SITE 13: note = alpha-methyl-leucine; SITE 17: note = Lysine is chemically modified through conjugation of the epsilon-amino group of the Lysine side chain with (2-[2-(2-Amino-ethoxy)-ethoxy]-acetyl)-(gamma-Glu)) [Example 99] ?
**A:** 0.174

**Q:** Fill in: Relative cAMP EC50 of YXQGTFTSDXSRXLDKKAQXAFIEYLIAGGPSSGAPPPSGSEE (synthetic construct; SITE 2: note = 2-Aminoisobutyric Acid; SITE 10: note = 3-(4-Pyridyl)-L-alanine; SITE 13: note = alpha-methyl-leucine; SITE 17: note = Lysine is chemically modified through conjugation of the epsilon-amino group of the Lysine side chain with (gamma-Glu)2-CO-(CH2)16-CO2H; SITE 20:) [Example 962] is ___
**A:** 0.0972
